Target: PD-L1 His protein / PD-1 Fc protein (Homo sapiens (Human), UniProt Q9NZQ7)
Sequence (Q9NZQ7 19-238): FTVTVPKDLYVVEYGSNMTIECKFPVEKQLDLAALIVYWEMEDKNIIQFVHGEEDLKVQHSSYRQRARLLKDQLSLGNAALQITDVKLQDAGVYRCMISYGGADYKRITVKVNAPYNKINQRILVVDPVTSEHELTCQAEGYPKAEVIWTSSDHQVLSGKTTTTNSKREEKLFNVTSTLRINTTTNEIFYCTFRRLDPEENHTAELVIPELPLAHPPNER
Experiment: HTRF Assay (PD-1/PD-L1 interaction)
Type: binding
Conditions: PD-L1 His 6 nM, PD-1 Fc 6 nM
READOUT_NAME: IC50 (nM)
Enter your answer as a number in nM; do not include the unit.

These recorded examples may help you get a feel for the data.
COc1nc(-c2ccnc(-c3cccc(NC(=O)c4cn(C)c(=O)n(C)c4=O)c3Cl)c2Cl)ccc1CNC1CCN(C(C)=O)CC1 | 0.7
CNCc1ccc(-c2cccc(-c3ccnc(-c4ccc(CNCCC(=O)OC(C)C)c(OC)c4)c3Cl)c2Cl)nc1OC | 12.4
COc1nc(-c2cccc(-c3ccnc(-c4ccc5c(CN(C)C)cn(C)c5c4)c3Cl)c2Cl)ccc1CNC[C@@H]1CCC(=O)N1 | 0.4
COc1nc(-c2cccc(-c3ccnc(-c4cc(OC)c5nc(CN6CC(C)(O)C6)nn5c4)c3Cl)c2Cl)ccc1CNC1CCN(C(C)=O)CC1 | 0.29
COc1cc(-c2nccc(-c3cccc(-c4ccc(CNC5CCOCC5)c(OC)n4)c3C)c2Cl)ccc1CNC1CCOCC1 | 4.23
COc1cc(-c2nccc(-c3cccc(-c4ccc5c(CNC[C@@H]6CCC(=O)N6)cn(C)c5n4)c3Cl)c2Cl)ccc1CNC[C@@H]1CCC(=O)N1 | 2.4
COc1nc(-c2cccc(-c3ccnc(-c4ccc5c(CNC[C@@H]6CCCO6)cn(C)c5c4)c3Cl)c2Cl)ccc1CNC[C@@H]1CCC(=O)N1 | 33.9
COc1cc(-c2nccc(-c3ccnc(-c4cnc5c(CNC[C@@H]6CCC(=O)N6)cn(C)c5c4)c3Cl)c2Cl)ccc1CNC[C@@H]1CCC(=O)N1 | 1

Which IC50 reading was recorded for the compound COc1nc(-c2cccc(-c3ccnc(-c4ccc5c(c4)CCCC5NC[C@H](C)O)c3Cl)c2Cl)ccc1CNC[C@@H]1CCC(=O)N1 (mixture of isomers) ?
0.7

Next: COc1cc(-c2nccc(-c3cccc(NC(=O)c4cn(C)c(=O)n(C)c4=O)c3Cl)c2Cl)ccc1CN1CC2(CNC(=O)C2)C1
0.25

Next: COc1nc(-c2ccnc(-c3cccc4c3CC[C@@H]4Oc3nc(OC)c(CNC4CCN(C(C)=O)CC4)cc3C(F)(F)F)c2Cl)ccc1CN1CC2(CNC(=O)C2)C1
0.32

Next: COc1cc(-c2nccc(-c3cccc(-c4ccc([C@H](C)NC5CCN(C(C)=O)CC5)c(OC)n4)c3Cl)c2Cl)ccc1[C@H](C)NC1CCN(C(C)=O)CC1
1.01

Next: COc1nc(-c2cccc(-c3ccnc(-c4ccc5c(c4)CNC5)c3Cl)c2Cl)ccc1CN1CC2(CNC(=O)C2)C1
10.8

Next: CNCc1ccc(-c2cccc(-c3ccnc(-c4cc(CN5CC6(CC(C(=O)O)C6)C5)cc(OC)c4)c3Cl)c2Cl)nc1OC
32.1

Next: COc1cc(-c2nccc(-c3cccc(-c4cnc(CNC5CCN(C(C)=O)CC5)c(OC)c4)c3Cl)c2Cl)ccc1CNC1CCN(C(C)=O)CC1
1.72

Next: COc1cc(-c2nccc(-c3cccc(-c4ccc5c(OC)c(CNC[C@@H]6CCC(=O)N6)cc(Cl)c5n4)c3Cl)c2Cl)ccc1CNC[C@@H]1CCC(=O)N1
7.66

Next: COc1nc(-c2cccc(-c3ccnc(-c4ccc5c(CNC6CCOCC6)cn(C)c5c4)c3Cl)c2Cl)ccc1CNC[C@@H]1CCC(=O)N1
0.1

###

Target: UniProtKB Q9NZQ7
Assay: T cell activation luciferase reporter cell culture system (T Cell Activation Assay)
Type: cell-based
Settings: luciferase reporter assay; PD-L1 aAPC/CHO-K1 cells with PD-1 effector Jurkat T cells
Recorded measurements of EC50, one per entry
Enter your answer as a number in nM; do not include the unit.

These recorded examples may help you get a feel for the data.
COc1cc(-c2nccc(-c3cccc(-c4ccc(CNC5CCN(C(=O)c6ccco6)CC5)c(OC)n4)c3Cl)c2Cl)ccc1CNC1CCN(C(=O)c2ccco2)CC1 | 47.7
COc1cc(-c2nccc(-c3cccc(NC(=O)c4ccc(CNC5CCN(C(C)=O)CC5)cn4)c3Cl)c2Cl)ccc1CNC1CCN(C(C)=O)CC1 | 234
COc1nc(-c2cccc(-c3ccnc(-c4ccc5c(c4)CN(CCNC[C@@H]4CCC(=O)N4)C5=O)c3Cl)c2Cl)ccc1CNC[C@H](C)O | 3380

Tell me reported EC50 for COc1cc(-c2nccc(-c3cccc(-c4ccc(CNC5CCN(S(C)(=O)=O)CC5)c(OC)n4)c3Cl)c2Cl)ccc1CNC1CCN(S(C)(=O)=O)CC1 , tested with UniProtKB Q9NZQ7.
23.5

Next: COc1nc(-c2cccc(-c3ccnc(-c4ccc(CNC5CCOCC5)c(OC(F)F)c4)c3Cl)c2Cl)ccc1CN1CC2(CNC(=O)C2)C1
51.7

###

Molecular target: UniProt Q9NZQ7
Experiment: T cell activation luciferase reporter cell culture system (T Cell Activation Assay)
Format: cell-based
Settings: luciferase reporter assay; PD-L1 aAPC/CHO-K1 cells with PD-1 effector Jurkat T cells
READOUT_NAME: EC50 (nM)
Enter your answer as a number in nM; do not include the unit.

COc1cc(-c2nccc(-c3cccc(-c4ccc(CNC[C@@H]5CCC(=O)N5)c(OC)n4)c3Cl)c2Cl)ccc1CN[C@@H](C)C(=O)OC(C)C [Cmpd 125] | 361
COc1cc(-c2nccc(-c3cccc(-c4ccc(CNC[C@@H]5CCC(=O)N5)c(OC)n4)c3Cl)c2Cl)cc(F)c1CNC(C)C [Cmpd 82] | 60.5
COc1cc(-c2nccc(-c3cccc(-c4ccc(CNC[C@@H]5CCC(=O)N5)c(OC)n4)c3Cl)c2Cl)ccc1CNC1CCOCC1 [Cmpd 127] | 33.5
COc1nc(-c2cccc(-c3ccnc(-c4ccc5c(c4)OCCNC5)c3Cl)c2Cl)ccc1CNC[C@@H]1CCC(=O)N1 [Compound 26] | 77.3
CNCc1ccc(-c2cccc(-c3ccnc(-c4ccc(CNC[C@@H](O)CC(=O)OC(C)C)c(OC)c4)c3Cl)c2Cl)nc1OC [Example 280] | 111

Which EC50 reading was recorded for the compound COc1cc(-c2nccc(-c3cccc(-c4ccc(CN5CC6(COC6)C5)c(OC)n4)c3Cl)c2Cl)ccc1CN1CC2(COC2)C1 [Example 387] ?
8.22

###

Molecular target: human PD-L1 (Homo sapiens (Human))
Sequence (Q9NZQ7 19-290): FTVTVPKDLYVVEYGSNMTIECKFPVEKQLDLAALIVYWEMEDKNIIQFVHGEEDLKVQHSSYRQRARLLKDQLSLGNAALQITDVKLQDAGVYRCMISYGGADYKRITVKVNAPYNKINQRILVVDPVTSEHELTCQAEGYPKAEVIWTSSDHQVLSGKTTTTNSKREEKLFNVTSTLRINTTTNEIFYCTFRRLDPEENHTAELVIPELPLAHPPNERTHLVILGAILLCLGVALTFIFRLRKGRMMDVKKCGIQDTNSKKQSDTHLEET
Experiment: T cell activation luciferase reporter cell culture system (T Cell Activation Assay)
Type: cell-based
Settings: luciferase reporter assay; PD-L1 aAPC/CHO-K1 cells with PD-1 effector Jurkat T cells
READOUT_NAME: log10 EC50 (log10 of the value in nM)
Friendly reminder: values = log10 of EC50, unit nM.

These recorded examples may help you get a feel for the data.
COCCC(=O)N1CCC(NCc2ccc(-c3cccc(-c4ccnc(-c5ccc(CNC6CCN(C(C)=O)CC6)c(OC)c5)c4Cl)c3Cl)nc2OC)CC1 | 1.26
COc1cc(-c2nccc(-c3cccc(-c4ccc(CN[C@H]5CC[C@H](O)CC5)c(OC)n4)c3Cl)c2C)ccc1CN[C@H]1CC[C@H](O)CC1 | 2.46
COc1cc(-c2nccc(-c3cccc(NC(=O)c4ccc(CNC[C@H](C)O)cn4)c3C)c2Cl)ccc1CNC[C@H](C)O | 2.16
COc1cc(-c2nccc(-c3cccc(-c4ccc(CNC5CCN(C(=O)C6CCC6)CC5)c(OC)n4)c3Cl)c2Cl)ccc1CNC1CCN(C(=O)C2CCC2)CC1 | 2.13

Continue with the next molecule.
Which log10 EC50 reading was recorded for the molecule COc1cc(-c2nccc(-c3cccc(-c4ccc(CNC5CCN(C(C)=O)CC5)c(OC)n4)c3Cl)c2Cl)ccc1CNC1CC2(COC2)C1 ?
1.66

###

Recorded measurements of EC50, one per entry
Target: UniProtKB Q9NZQ7
Test: T cell activation luciferase reporter cell culture system (T Cell Activation Assay)
Assay type: cell-based
Details: luciferase reporter assay; PD-L1 aAPC/CHO-K1 cells with PD-1 effector Jurkat T cells
Enter your answer as a number in µM; do not include the unit.

Which EC50 reading was recorded for the compound COc1nc(-c2cccc(-c3ccnc(-c4cnc5c(CNC[C@@H]6CCO6)cn(C)c5c4)c3Cl)c2Cl)ccc1CNC[C@@H]1CCC(=O)N1 [Compound 22] ?
0.135

Next: COc1nc(-c2cccc(-c3ccnc(-c4ccc5c(c4)CN(CCNC[C@@H]4CCC(=O)N4)C5=O)c3Cl)c2Cl)cc(F)c1CNC[C@@H]1CCC(=O)N1 [Compound 178]
0.144

Next: Cn1cc(CNC[C@@H]2CCC(=O)N2)c2ccc(-c3nccc(-c4ccnc(-c5ccc6c(CNC[C@@H]7CCC(=O)N7)cn(C)c6c5)c4Cl)c3Cl)cc21 [Compound 15]
10

###

Recorded measurements of pIC50, one per entry
Target: PD-L1 His protein / PD-1 Fc protein (Homo sapiens (Human))
Assay: HTRF Assay (PD-1/PD-L1 interaction)
Format: binding
Settings: PD-L1 His 6 nM, PD-1 Fc 6 nM
Hey, just a heads up that pIC50 is the negative log base 10 of the concentration in molar.

These recorded examples may help you get a feel for the data.
COc1cc(-c2nccc(-c3cccc4c3CC[C@@H]4Oc3nc(OC)c(CN4CC5(CNC(=O)C5)C4)cc3C(F)(F)F)c2Cl)cc(F)c1CN1CC2(CNC(=O)C2)C1 [Example 306] | 9.12
COc1nc(-c2cccc(-c3ccnc(-c4ccc(CN5CC6(CNC(=O)C6)C5)c(F)c4)c3Cl)c2Cl)ccc1CN1CC2(CNC(=O)C2)C1 [Example 284] | 8.55
COc1cc(-c2nccc(-c3cccc(-c4ccc(CNC5CCN(C(C)=O)CC5)c(OC)n4)c3Cl)c2Cl)ccc1CNC1CC(C)(C)C1 [Example 381] | 9.74
COc1cc(-c2nccc(-c3cccc(-c4ccc(CN[C@H]5CCC(=O)NC5)c(OC)n4)c3Cl)c2Cl)ccc1CNC1CCN(C(C)=O)CC1 [Example 542] | 9.28
COc1cc(-c2nccc(-c3cccc(-c4ccc(CNC[C@@H]5CCC(=O)N5)c(OC)n4)c3Cl)c2Cl)ccc1CN[C@@H](C)C(=O)O [Compound 130] | 9.68

Tell me reported pIC50 for CNCc1ccc(-c2cccc(-c3ccnc(-c4cc(CN5CC[C@H](C(=O)O)C5)cc(OC)c4)c3Cl)c2Cl)nc1OC [Compound 171] , tested with PD-L1 His protein / PD-1 Fc protein (Homo sapiens (Human)).
8.78

Hello, the source for this data is patent US20240246964A1, in case you need it.
